Measured phosphorylation enrichment, listed per entry for reference.
- System: Fer (mouse)
- test-details: phosphorylation enrichment, bacterial display (enrichment ratio); higher = better substrate or ligand; peptides without Tyr show the background;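 also: 11-residue human phosphosite peptides and single-mutation variants displayed on the E. coli surface, counted by deep sequencing, each peptide's frequency after selection divided by its frequency in the unselected input library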;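 also: frequency after pTyr selection over input frequency; kinase dosed for 20-30% of maximal phosphorylation in three min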
measure-name: phosphorylation enrichment

- seq: "MVTSGYKAKTI [EFR3A_Y447]"
  measure-name: "phosphorylation enrichment"
  measured-number: 0.314
- seq: "YLQEIHNSNNQ [FGG_Y140_Y140H]"
  measure-name: "phosphorylation enrichment"
  measured-number: 0.349
- seq: "LYSNAYLSDLA [ALDH1A1_Y119_N121S]"
  measure-name: "phosphorylation enrichment"
  measured-number: 7.25
- seq: "AEVIWYKGDEV"
  measure-name: "phosphorylation enrichment"
  measured-number: 0.491
- seq: "KMATAYIRRMS [BCO1_Y264]"
  measure-name: "phosphorylation enrichment"
  measured-number: 0.362
- seq: "DGNIDYAEFAK [MCFD2_Y138_Y135N]"
  measure-name: "phosphorylation enrichment"
  measured-number: 0.445
- seq: "ADRSCYDLSCH [GARS1_Y467]"
  measure-name: "phosphorylation enrichment"
  measured-number: 0.431
- seq: "LSKDLYLISQM [LARP4_Y141]"
  measure-name: "phosphorylation enrichment"
  measured-number: 0.918

###

- target-of-assay: Fes (UniProt P07332)
- Sequence (P07332 whole entry, looked up): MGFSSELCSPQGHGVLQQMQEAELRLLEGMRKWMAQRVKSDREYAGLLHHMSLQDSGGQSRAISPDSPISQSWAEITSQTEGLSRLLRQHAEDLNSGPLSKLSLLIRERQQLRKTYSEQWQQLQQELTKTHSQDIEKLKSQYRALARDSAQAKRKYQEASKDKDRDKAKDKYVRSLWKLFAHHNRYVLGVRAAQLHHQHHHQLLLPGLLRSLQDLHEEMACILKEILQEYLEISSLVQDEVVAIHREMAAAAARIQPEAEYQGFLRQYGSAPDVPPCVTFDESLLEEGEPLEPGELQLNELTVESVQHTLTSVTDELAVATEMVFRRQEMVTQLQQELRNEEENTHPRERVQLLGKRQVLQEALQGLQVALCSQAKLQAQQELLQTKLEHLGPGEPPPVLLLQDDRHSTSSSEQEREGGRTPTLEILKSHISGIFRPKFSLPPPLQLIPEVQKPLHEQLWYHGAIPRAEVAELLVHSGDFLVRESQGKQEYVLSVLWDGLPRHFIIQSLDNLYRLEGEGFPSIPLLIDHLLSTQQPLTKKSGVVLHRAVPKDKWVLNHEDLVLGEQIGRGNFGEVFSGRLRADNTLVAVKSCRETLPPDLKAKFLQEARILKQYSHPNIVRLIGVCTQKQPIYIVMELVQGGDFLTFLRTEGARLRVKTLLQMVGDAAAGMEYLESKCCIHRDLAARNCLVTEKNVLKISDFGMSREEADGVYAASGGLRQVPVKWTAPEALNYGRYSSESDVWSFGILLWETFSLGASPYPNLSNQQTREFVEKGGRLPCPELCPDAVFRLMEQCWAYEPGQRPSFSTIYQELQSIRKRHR
- test-details: phosphorylation enrichment, bacterial display (enrichment ratio); higher = better substrate or ligand; peptides without Tyr show the background
Label 0 (no) if phosphorylation enrichment falls below 1; label 1 (yes) in every other case.

- seq: "EADRKYEEVAR [TPM3_Y163]"
  class: "1 (yes)"
- seq: "TLRETYGEMAD [ALB_Y108]"
  class: "1 (yes)"
- seq: "IVVVPYEPPEV [TP53_Y220_S215I]"
  class: "1 (yes)"
- seq: "GMTLSYLFREL [NDUFS8_Y74_P79L]"
  class: "0 (no)"
- seq: "EPYELYCEMGS [CBL_Y371_Q367P]"
  class: "1 (yes)"
- seq: "ANLAKYGNPNE [BCHE_Y505_F502L]"
  class: "0 (no)"
- seq: "VVLEDYLDIKN [CLCNKB_Y138]"
  class: "1 (yes)"
- seq: "KVITDYYVDMK [MPP4_Y566]"
  class: "1 (yes)"
- seq: "SKLTIYDARPS [MTM1_Y277]"
  class: "1 (yes)"
- seq: "ILGRTYFVNHE [NEDD4_Y627_YF]"
  class: "0 (no)"
- seq: "HYGNNYRDVLQ [MACC1_Y803]"
  class: "0 (no)"
- seq: "APNEFYDGDHD [HDAC3_Y414]"
  class: "1 (yes)"
- seq: "RILDVYIFLGP [GAA_Y340_G335R]"
  class: "1 (yes)"
- seq: "GRDQPYSGAGD [TYRO3_Y828]"
  class: "0 (no)"
- seq: "AEQDWYHGAIP [FER_Y461]"
  class: "0 (no)"
- seq: "IHETTYNSIKK [ACTA1_Y281_M285K]"
  class: "0 (no)"
- seq: "IQKKYYRAILE [CHD7_Y1218]"
  class: "0 (no)"
- seq: "PADRAYSWFQH [NDST1_Y711_YF]"
  class: "1 (yes)"
- seq: "TFTVSYLPDMS [FLNC_Y1602_YF]"
  class: "1 (yes)"
- seq: "AKNKDYMSFIR [GNE_Y197_I200F]"
  class: "0 (no)"
- seq: "ADQLDYIKALN [HPRT1_Y81_L78Q]"
  class: "1 (yes)"
- seq: "ETKENYGKTLK [CHL1_Y291]"
  class: "0 (no)"
- seq: "PVDVAYRHGYF [PLEC_Y2967_R2969H]"
  class: "1 (yes)"
- seq: "HSDYQYSQRSQ [PKP2_Y168]"
  class: "0 (no)"
- seq: "HLGNQYVNVMN [SLC3A1_Y461_R456H]"
  class: "0 (no)"
- seq: "CTTIHYSYMCN [TP53_Y234_N235S]"
  class: "0 (no)"
- seq: "CTTFHYNYMCN [TP53_Y234_I232F]"
  class: "1 (yes)"
- seq: "TNEYEYDELIV [TGM1_Y136_D132N]"
  class: "1 (yes)"
- seq: "GGMAEYTRLHN [EHHADH_Y4]"
  class: "0 (no)"
- seq: "DDSNPYINVKL [MTHFD1_Y52_L51P]"
  class: "1 (yes)"
- seq: "EQPNPYMVLDI [ROCK2_Y1197_S1194P]"
  class: "1 (yes)"
- seq: "KSEFAYEIFDK [MYOM2_Y1024_L1022F]"
  class: "1 (yes)"
- seq: "AACQHYGVRTC [NR4A2_Y275]"
  class: "0 (no)"
- seq: "WCKPPYFSCAV [MMS22L_Y28]"
  class: "0 (no)"
- seq: "SDPIIYTLENV [ADGRE1_Y534_I539V]"
  class: "1 (yes)"
- seq: "LSDGPYSNSYE [EPOR_Y485_P488S]"
  class: "1 (yes)"
- seq: "CTTIHYYYMCN [TP53_Y234_N235Y]"
  class: "1 (yes)"
- seq: "VVLGSYDRLRV [IFT172_Y260]"
  class: "0 (no)"
- seq: "DWLRRYLENGK [HLA-A_Y195_E190D]"
  class: "1 (yes)"
- seq: "GLAELYEFQKK [CKAP5_Y1854_K1857Q_YF]"
  class: "0 (no)"
- seq: "RLSVDCGKKSK [TUBA4A_Y161_Y161C]"
  class: "0 (no)"
- seq: "ECKASCPGKIT [PRSS3_Y232_Y232C]"
  class: "0 (no)"
- seq: "EIRTQYEVMAS [GFAP_Y242_A244V]"
  class: "0 (no)"
- seq: "PNRILYGDFQQ [MYH7_Y715_R719Q]"
  class: "0 (no)"
- seq: "CTTIHYMYMCN [TP53_Y234_N235M]"
  class: "1 (yes)"
- seq: "PESIMYWKFTT [NTRK3_Y744_R745W]"
  class: "1 (yes)"
- seq: "IGKAGYTDKMV [ENO1_Y236_V240M]"
  class: "0 (no)"
- seq: "RKKEEYKMALF [F8_Y1990_YF]"
  class: "0 (no)"
- seq: "PHMQTYEVDLN [SDHB_Y61]"
  class: "1 (yes)"
- seq: "LTDRGYSFVTT [ACTA1_Y200_E197D]"
  class: "1 (yes)"
- seq: "QQLQGYVPSNY [FRK_Y99_I100V]"
  class: "0 (no)"
- seq: "HEHKGYNANFC [TGFB2_Y341_P338H]"
  class: "0 (no)"
- seq: "EIPTQYEAMAS [GFAP_Y242_R239P]"
  class: "1 (yes)"
- seq: "IVEYAYNDKAI [PUM3_Y259]"
  class: "1 (yes)"

###

- System: AncSZ
- test-details: phosphorylation enrichment, bacterial display (enrichment ratio); higher = better substrate or ligand; peptides without Tyr show the background
Measured phosphorylation enrichment, listed per entry for reference.
measure-name: phosphorylation enrichment

- seq: "RKKEEYKMALF [F8_Y1990_YF]"
  measured-number: 0.759
- seq: "GDEEDYFEIPG [EGFR_opt_F_2015]"
  measured-number: 2.75
- seq: "SGDDGYAKDAQ [TENM4_Y1530_K1535Q]"
  measured-number: 0.818
- seq: "FSDPDYLAAVD [GLB1_Y154_S149F]"
  measured-number: 1.45
- seq: "EPSVPYRGMVF [GLI3_Y104_T107M]"
  measured-number: 0.704
- seq: "CTTIHKNFMCN [TP53_Y234_Y234K_YF]"
  measured-number: 0.831
- seq: "LRFDVYGGENE [STOX1_Y610_E608D_YF]"
  measured-number: 1.09
- seq: "SCTFTCLLGDR [ETHE1_Y38_Y38C]"
  measured-number: 0.916
- seq: "TTPGPYRSIYF [MPG_Y71]"
  measured-number: 0.595
- seq: "MDQAEYQAKIR [DHX58_Y518]"
  measured-number: 0.616
- seq: "DNKALYDICFR [TUBB3_Y208_E205K]"
  measured-number: 1.38
- seq: "TRTDAYAVSSF"
  measured-number: 0.78
- seq: "EFGRRYGFSCQ [CCDC93_Y209_R213C_YF]"
  measured-number: 0.914
- seq: "HSDYQYSQRSQ [PKP2_Y168]"
  measured-number: 0.821
- seq: "PLLEYYRDIFT [CDAN1_Y713]"
  measured-number: 1.7
- seq: "NRLTDYFELLL [BBS10_Y536_P539L_YF]"
  measured-number: 1.36
- seq: "KVPRHYDDPGK [FOXG1_Y246]"
  measured-number: 0.785
- seq: "TFRPPYFHRNC [HGD_Y333_YF]"
  measured-number: 0.733
- seq: "FQQLFYLLQIN [IQGAP2_Y890_T894I_YF]"
  measured-number: 1.51
- seq: "VQSASYLNDCL [MCM3AP_Y864_A867D]"
  measured-number: 0.788
- seq: "FMLFQYLKQIE [RPAP3_Y569_D564Y_YF]"
  measured-number: 1.12
- seq: "SGSFRYGSSFE [SELE_Y390_C394F]"
  measured-number: 0.692
- seq: "CLEKEYFDQHF [NPC1_Y394_R389C]"
  measured-number: 1.53
- seq: "RELGEYPLAEY [ALDH1A3_Y492_A493P]"
  measured-number: 0.982
- seq: "DGMADYSDPSY [CDC5L_Y459]"
  measured-number: 1.43
- seq: "HEHKGYNANFC [TGFB2_Y341_P338H]"
  measured-number: 0.603
- seq: "CGTPDYIAPEI [PRKCG_Y521]"
  measured-number: 1.99
- seq: "KKHFSYAWPFY [BRDT_Y291]"
  measured-number: 1
- seq: "ILGRTYFVNHE [NEDD4_Y627_YF]"
  measured-number: 0.83
- seq: "LALTVYADCLA [ABCA4_Y2063_G2059A]"
  measured-number: 1.42
- seq: "AAILGYCRGEA [XPC_Y669]"
  measured-number: 0.789
- seq: "TDEFEYDELIV [TGM1_Y136_YF]"
  measured-number: 2.29
- seq: "PADQAYSWFQH [NDST1_Y711_R709Q_YF]"
  measured-number: 1.7
- seq: "PVDGEYFTLQI [TP53_Y327_L323V]"
  measured-number: 4.07
- seq: "HSHTRYERNIE [F2_Y434_R431H]"
  measured-number: 0.766
- seq: "LEAVSYSSRYA [RNLS_Y190]"
  measured-number: 0.687
- seq: "MEYLPYGSLRD [JAK2_Y934]"
  measured-number: 1.45
- seq: "FQRLQYIKQLG [SAMHD1_Y146_R145Q]"
  measured-number: 0.715
- seq: "EILTQYEAMAS [GFAP_Y242_R239L]"
  measured-number: 1.02
- seq: "MCDSHYLESRS [CLK1_Y56]"
  measured-number: 0.578
- seq: "IITVHYVLEES [RYR2_Y4559_A4556T]"
  measured-number: 1.17
- seq: "FQKNVYSEELR [LMNA_Y211_I210V]"
  measured-number: 0.674
- seq: "LLREWYMIISR [HUWE1_Y4066]"
  measured-number: 1.35
- seq: "AACQHYGVRTC [NR4A2_Y275]"
  measured-number: 0.592
- seq: "RPSRWYQFPVA [ANOS1_Y259_R262P]"
  measured-number: 2.95
- seq: "DVCKNYAKAKD [ALB_Y343_E345K]"
  measured-number: 0.71
- seq: "SPPPAFTPMSG [ERBB4_Y1056_Y1056F]"
  measured-number: 0.597
- seq: "RLLRGYNQSAF [HLA-C_Y137_D138N_YF]"
  measured-number: 0.54
- seq: "YIRRDYEACKA [BBS4_Y48_K46R]"
  measured-number: 0.765
- seq: "IVVVPYEPPEV [TP53_Y220_S215I]"
  measured-number: 1.01
- seq: "LDYNEYVRDLN [HPRT1_Y198_F199V]"
  measured-number: 1.63
- seq: "GLAELYEFQKK [CKAP5_Y1854_K1857Q_YF]"
  measured-number: 0.973
- seq: "TFTVSYLPDMS [FLNC_Y1602_YF]"
  measured-number: 1.08
- seq: "AGKEEYSAMRD [HRAS_Y64_Q61K]"
  measured-number: 0.799
- seq: "IMAYFYMCDRA [CASD1_Y382]"
  measured-number: 1.11
- seq: "GPSTPYTKSKC [SMARCC2_Y324_R329C]"
  measured-number: 0.584
- seq: "EILLSDLRTGY [TGM1_Y365_Y365D]"
  measured-number: 0.673
